- Tested on: SARS-CoV-2
- Type: cell-based
- condition-details: 83 μM, Vero cells
Structures can show the parent of a compound that is named as a salt.
Quick list: % Reduction in viral plaques per entry.

# molecule, readout-units, % Reduction in viral plaques
data = [
    ("C[C@@H]1C[C@H]2[C@@H]3CCC4=CC(=O)C=C[C@]4(C)[C@@]3(F)[C@@H](O)C[C@]2(C)[C@@]1(O)C(=O)CO", "%", 77.27),
    ("CCN(CC)CCCC(C)Nc1ccnc2cc(Cl)ccc12 (stereo not drawn) [Compound 11, Chloroquine phosphate]", "%", 100),
    ("NC12CC3CC(CC(C3)C1)C2 [Compound 8, Amantadine hydrochloride]", "%", 77.27),
    ("CC(C(=O)O)c1ccc(-c2ccccc2)c(F)c1 (stereo not drawn)", "%", 59.09),
    ("CCCCc1nc(Cl)c(CO)n1Cc1ccc(-c2ccccc2-c2nn[nH]n2)cc1", "%", 54.54),
]

---

- experimental-target: SARS-CoV-2 Main protease (M^pro) (Severe acute respiratory syndrome coronavirus 2)
Structures can show the parent of a compound that is named as a salt.

# compound, Kd
rows = [
    ("CCCCc1nc(Cl)c(CO)n1Cc1ccc(-c2ccccc2-c2nn[nH]n2)cc1", "~64 µM"),
    ("Cc1cccc(C)c1OCC(C)N (centres unmarked) [Compound 4, Mexiletine hydrochloride]", "~21 µM"),
    ("CC(C(=O)O)c1ccc(-c2ccccc2)c(F)c1 (centres unmarked)", "~66 µM"),
    ("COc1ccc([C@@H]2Sc3ccccc3N(CCN(C)C)C(=O)[C@@H]2OC(C)=O)cc1 [Compound 1, Diltiazem hydrochloride]", "~44 µM"),
    ("Cc1cccc(Nc2ccccc2C(=O)O)c1C", "~15 µM"),
]
